Biological target: T1, RSV F A G446E (RSV A, strain A2, UniProt P03420 26-574)
T1 construct: whole, on cells
Test: FACS, % binding to RSV F A variants
QUANTITY NAME: % binding (%)
Expressed in %, but write only the number.

State, in one line, measured % binding of MPK176-v1.3 (antibody, V domains shown) VH: QVQLVQSGAEVKKPGASVRVSCKASGYTLTAYGISWVRQAPGQGLEWMGWISPKHGNTHYAQRFQGRVTMTTDTSTSTAYMELRSLRPDDTAVYFCAREGVDIMAVPWYFDYWGQGTLVAVSS VL: SYVLTQPPSVSVAPGQTARISCGGNNIGSKSVHWYQQKPGQAPVVVVYDDSKRPSGIPERFSGSNSGNTATLTISGVEAGDEADYFCQVWDSATDHWVFGGGTKLTVL
0.017
